All figures here come from the Human Domainome abundance scans (Beltran et al. 2025).

Catalogue of variants with associated abundance fitness
B1: Histone-lysine N-methyltransferase SETD2, residues 2382 to 2430; numbered along this chain, Q9BYW2 (parent)
chain: SPPKPKTIVLPPNWKTARDPEGKIYYYHVITRQTQWDPPTWESPGDDAS

# Variants of: B1
# experiment: abundance fitness (aPCA) (normalised: wild type 0, dead -1); higher = more abundant; growth selection in yeast, the domain comes from the species named
# stated conditions: Homo sapiens
measured parameter: abundance fitness

>>> reported_measurement("SPPKPKTIVLPPNWKTARDPEGKIYYYHVITRQTQWDPPTWVSPGDDAS")
-0.141
>>> reported_measurement("SPPKPKTIVLPPNWKTARDPEGKIYYDHVITRQTQWDPPTWESPGDDAS")
-0.446
>>> reported_measurement("SPPKPKTIVLPPNWKTARDPEGKIYYYHVITRQTQWDPPTWESIGDDAS")
-0.452
>>> reported_measurement("SPPKPKTIVLPPAWKTARDPEGKIYYYHVITRQTQWDPPTWESPGDDAS")
-0.581
>>> reported_measurement("SPPKPKTIVLPPNWKTARDPEGKIYYYHLITRQTQWDPPTWESPGDDAS")
-0.287
>>> reported_measurement("SPPPPKTIVLPPNWKTARDPEGKIYYYHVITRQTQWDPPTWESPGDDAS")
-0.386
>>> reported_measurement("SPPKPKTIVLPPNWKTARDPEGKIYAYHVITRQTQWDPPTWESPGDDAS")
-0.865
>>> reported_measurement("SPPKPKTIVLPPNWKTARDPEGKIYYYHVITMQTQWDPPTWESPGDDAS")
-0.15
>>> reported_measurement("SPPKPKTIVLPPNWKKARDPEGKIYYYHVITRQTQWDPPTWESPGDDAS")
-0.059
>>> reported_measurement("SPPKPKTIVLPPNWKTARDPEGKIYYYHVIERQTQWDPPTWESPGDDAS")
-0.735
>>> reported_measurement("SPPKPKRIVLPPNWKTARDPEGKIYYYHVITRQTQWDPPTWESPGDDAS")
0.094
